pIC50: −log10 of the molar value.
A compilation of published pIC50 results with Vascular endothelial growth factor receptor 2 (Homo sapiens, UniProt P35968).
Sequence (P35968 whole entry): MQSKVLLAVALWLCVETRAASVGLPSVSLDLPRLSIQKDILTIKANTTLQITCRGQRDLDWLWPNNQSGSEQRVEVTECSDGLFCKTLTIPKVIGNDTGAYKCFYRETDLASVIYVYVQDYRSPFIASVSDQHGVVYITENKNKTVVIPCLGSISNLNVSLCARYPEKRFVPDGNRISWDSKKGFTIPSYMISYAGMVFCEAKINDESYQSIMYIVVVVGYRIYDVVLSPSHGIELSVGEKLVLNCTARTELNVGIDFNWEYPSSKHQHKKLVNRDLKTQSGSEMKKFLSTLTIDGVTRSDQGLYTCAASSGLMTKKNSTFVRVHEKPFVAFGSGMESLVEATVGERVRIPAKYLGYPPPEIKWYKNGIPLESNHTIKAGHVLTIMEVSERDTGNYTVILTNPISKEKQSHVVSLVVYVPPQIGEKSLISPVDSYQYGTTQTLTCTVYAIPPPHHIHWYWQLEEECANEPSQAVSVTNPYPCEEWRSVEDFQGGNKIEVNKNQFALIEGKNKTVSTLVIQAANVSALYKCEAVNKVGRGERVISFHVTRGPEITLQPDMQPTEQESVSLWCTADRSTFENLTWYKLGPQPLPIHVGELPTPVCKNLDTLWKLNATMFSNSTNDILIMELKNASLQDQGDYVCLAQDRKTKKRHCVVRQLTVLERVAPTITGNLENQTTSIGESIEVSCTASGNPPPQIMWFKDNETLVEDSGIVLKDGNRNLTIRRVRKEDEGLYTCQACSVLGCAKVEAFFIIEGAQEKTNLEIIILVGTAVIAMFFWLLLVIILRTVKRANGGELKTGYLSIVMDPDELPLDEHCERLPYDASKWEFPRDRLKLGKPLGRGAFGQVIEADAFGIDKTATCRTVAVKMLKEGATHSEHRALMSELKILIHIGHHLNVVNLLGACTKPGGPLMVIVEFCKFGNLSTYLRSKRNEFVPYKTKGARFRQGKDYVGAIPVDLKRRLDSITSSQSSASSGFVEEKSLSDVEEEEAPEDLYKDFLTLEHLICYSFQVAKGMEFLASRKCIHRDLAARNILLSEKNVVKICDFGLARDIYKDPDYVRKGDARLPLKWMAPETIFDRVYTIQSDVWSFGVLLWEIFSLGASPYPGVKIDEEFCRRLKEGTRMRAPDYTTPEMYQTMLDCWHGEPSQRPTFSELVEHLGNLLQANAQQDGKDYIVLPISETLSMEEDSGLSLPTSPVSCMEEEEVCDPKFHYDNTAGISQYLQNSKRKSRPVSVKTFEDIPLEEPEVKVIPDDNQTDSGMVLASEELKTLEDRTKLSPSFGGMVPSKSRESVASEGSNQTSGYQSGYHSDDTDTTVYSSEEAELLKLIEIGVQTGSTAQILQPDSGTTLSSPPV
measurement.kind: pIC50

Recorded pIC50, per entry:
structure	reported.measurement
Cc1[nH]c(/C=C2\C(=O)Nc3ccccc32)c(C)c1Cl	6.00
COc1ccc(/C=N/n2c(SCC(=O)c3ccc(Cl)cc3)nnc2-c2cc3ccccc3[nH]2)cc1	7.15
COc1ccccc1NC(=O)c1ccc(CSc2nnc3c(n2)[nH]c2ccccc23)cc1	8.80
COc1cc2c(Nc3c(Cl)ccc4c3OCO4)ncnc2cc1OCC1CCN(C)CC1	4.81
Cc1[nH]c2c(c1C(=O)NCCN1CCOCC1)CCC/C2=C1/C(=O)Nc2ccc(F)cc21	8.80

(1) CCNC(=O)Nc1ccc(N(C)c2ccnc(Nc3cccc(CS(C)(=O)=O)c3)n2)cc1
(2) CC(=O)c1ccc2c(c1)NC(=O)/C2=C(\Nc1ccc(CN2CCCCC2)cc1)c1ccccc1
(3) CC(C)COC(=O)Nc1ccc(-c2cnc3c(-c4ccc(N5CCN(C)CC5)cc4)cnn3c2N)cc1
(4) CN(C)c1c(-c2nc3ccccc3[nH]2)c(=O)[nH]c2ccccc12
Task: Rank by pIC50 (largest to smallest). Response field: labels, in requested order.
Output: 1, 4, 2, 3

(P) CNc1cc(Oc2cc(C)c(NC(=O)Nc3cccc(C(F)(F)F)c3)cc2C)ncn1
(Q) Cc1ccc(Nc2ncnn3cc(C(=O)NCCCN4CCCC4)c(C(C)C)c23)cc1O
Task: Hey, which is lower on measured pIC50, P or Q ? # reply format: chosen label
Output: P
(P: 5.70, Q: 7.74)

(A) COC(=O)c1ccc2c(c1)NC(=O)/C2=C(\Nc1ccc(CN(C)C(=O)N(C)C)cc1)c1ccccc1
(B) O=S(=O)(Nc1nccs1)c1ccc(Nc2nncc3ccccc23)cc1
Task: Between A and B , which one shows the larger pIC50 value? # reply format: chosen label
Output: B
(B: 8.07, A: 7.21)

(A) CCN(CC)CCOc1ccc(Nc2nc(-c3ccc(OC)cc3)nc(Cl)c2-c2ccccc2)cc1
(B) O=C(NC1CCCCC1)c1cc2c(-c3ccccc3)n[nH]c2s1
Task: Hey, which is lower on measured pIC50, A or B ? # reply format: chosen label
Output: B
(B: 6.31, A: 7.17)
